Tested on: SK-N-SH
Experiment: Cytoprotective activity against 26S proteasome inhibitor MG132-induced stress in human SK-N-SH cells assessed as cell viability treated 1 hr before MG132 challenge measured after 24 hrs
Assay type: functional, cell-based
Run conditions: Homo sapiens, SK-N-SH; read-out: EC50
pEC50: −log10 of the molar value.
Readout label: pEC50

Compound: CS(=O)(=O)NCC(O)CO/N=C(\Cl)c1nc2ccccc2o1 (stereo not drawn)
pEC50: 4.41

Compound: OC(CO/N=C(\Cl)c1nc2ccc(F)cc2o1)CN1CCCCC1 (stereo not drawn)
pEC50: 4.96

Compound: CC(C)N(CCO)CC(O)CO/N=C(\Cl)c1nc2ccccc2o1 (stereo not drawn)
pEC50: 5.09

Compound: OC(CO/N=C(\Cl)c1nc2c(ccc3ccccc32)o1)CN1CCCCC1 (stereo not drawn)
pEC50: 5.28

Compound: CN(C)S(=O)(=O)c1ccc2nc(/C(Cl)=N/OCC(O)CN3CCCCC3)oc2c1 (stereo not drawn)
pEC50: 5.10

[P] OC(CO/N=C(\Cl)c1nc2cccc(F)c2o1)CN1CCCCC1 (stereo not drawn)
[Q] OC(CO/N=C(\Cl)c1nc2ccc(Cl)cc2o1)CN1CCCCC1 (stereo not drawn)
[R] Cl/C(=N\OCCCN1CCCCC1)c1nc2ccccc2o1
[S] CCCCN(CCCC)CC(O)CO/N=C(\Cl)c1nc2ccccc2o1 (stereo not drawn)
[Q] Please list the entries, largest pEC50 first. # answer = labels listed in requested order
[A] P, Q, S, R
(P: 5.42, Q: 5.05, S: 4.65, R: 4.23)

* * *

Experiment: Cytotoxicity against human HeLa cells by MTS assay
Type: cell-based
# CC50 annotations
Answer in µM, number only, no unit symbol.

Solved entries (count: 5):
Compound: CC1CC(C)CN(CC(O)CO/N=C(\Cl)c2nc3ccccc3o2)C1 (centres undefined)
CC50 / µM: 55.3
//
Compound: OC(CO/N=C(\Cl)c1nc2ccccc2o1)CN1CCCCC1 (centres undefined)
CC50 / µM: 41.7
//
Compound: OC(CO/N=C(\Cl)c1nc2cc(Cl)ccc2o1)CN1CCCCC1 (centres undefined)
CC50 / µM: 31.4
//
Compound: OC(CO/N=C(\Cl)c1nc2c(ccc3ccccc32)o1)CN1CCCCC1 (centres undefined)
CC50 / µM: 18.9
//
Compound: CC(C)N(CC(O)CO/N=C(\Cl)c1nc2ccccc2o1)C(C)C (centres undefined)
CC50 / µM: 45

[Q] Given the compound CC(C)N(CC(O)CO/N=C(\Cl)c1nc2ccccc2o1)C(C)(C)C (centres undefined) , what is its reported CC50?
[A] 30.8

[Q] Now this one: OC(CO/N=C(\Cl)c1nc2ccccc2o1)CN1CCCC(F)C1 (centres undefined)
[A] 52.7

[Q] Now this one: OC(CO/N=C(\Cl)c1nc2ccc(Cl)cc2o1)CN1CCCCC1 (centres undefined)
[A] 44.2

[Q] Now this one: OC(CO/N=C(\Cl)c1nc2ccccc2s1)CN1CCCCC1 (centres undefined)
[A] 49.1

[Q] Now this one: CS(=O)(=O)NCC(O)CO/N=C(\Cl)c1nc2ccccc2o1 (centres undefined)
[A] 48.5

[Q] Now this one: OC(CO/N=C(\Cl)c1nc2cccc(F)c2o1)CN1CCCCC1 (centres undefined)
[A] 19.3

[Q] Now this one: CCS(=O)(=O)c1ccc2oc(/C(Cl)=N/OCC(O)CN3CCCCC3)nc2c1 (centres undefined)
[A] 41.4

[Q] Now this one: CC1CCCC(C)N1CC(O)CO/N=C(\Cl)c1nc2ccccc2o1 (centres undefined)
[A] 78.9

* * *

# CC50 annotations
Experiment: Cytotoxicity against human SK-N-SH cells by MTS assay
Assay type: cell-based
Answer in µM, number only, no unit symbol.

Molecule: OC(CO/N=C(\Cl)c1nc2ccccc2o1)CN1CCC(F)CC1 (stereo not given)
CC50 (µM): 52.6
//
Molecule: CN(C)S(=O)(=O)c1ccc2nc(/C(Cl)=N/OCC(O)CN3CCCCC3)oc2c1 (stereo not given)
CC50 (µM): 42.4
//
Molecule: OC(CO/N=C(\Cl)c1nc2ccccc2o1)CN1CCCC(F)C1 (stereo not given)
CC50 (µM): 49.8
//
Molecule: OC(CO/N=C(\Cl)c1nc2ccccc2s1)CN1CCCCC1 (stereo not given)
CC50 (µM): 26.5
//
Molecule: O=C(NCC(O)CO/N=C(\Cl)c1nc2ccccc2o1)N1CCCCC1 (stereo not given)
CC50 (µM): 59.6

Now look at this entry.
[Q] Given the molecule CC1CCCC(C)N1CC(O)CO/N=C(\Cl)c1nc2ccccc2o1 (stereo not given) , what is its reported CC50?
[A] 36.2

* * *

System under test: Heat shock factor protein 1 (Homo sapiens) (UniProt Q00613)
Sequence (Q00613 whole entry): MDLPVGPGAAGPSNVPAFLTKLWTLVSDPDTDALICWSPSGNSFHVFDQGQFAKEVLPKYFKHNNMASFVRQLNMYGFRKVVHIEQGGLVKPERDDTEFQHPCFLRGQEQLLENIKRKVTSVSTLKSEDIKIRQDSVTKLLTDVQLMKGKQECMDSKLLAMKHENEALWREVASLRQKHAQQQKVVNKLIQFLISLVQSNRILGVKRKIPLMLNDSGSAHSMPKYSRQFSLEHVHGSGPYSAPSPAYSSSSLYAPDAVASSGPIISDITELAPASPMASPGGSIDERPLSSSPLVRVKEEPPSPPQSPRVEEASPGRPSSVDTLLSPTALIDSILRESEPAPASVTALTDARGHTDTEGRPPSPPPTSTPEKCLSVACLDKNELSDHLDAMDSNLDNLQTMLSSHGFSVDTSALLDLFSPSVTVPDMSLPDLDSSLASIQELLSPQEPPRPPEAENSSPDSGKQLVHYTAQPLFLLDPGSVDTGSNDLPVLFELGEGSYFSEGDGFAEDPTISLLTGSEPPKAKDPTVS
Experiment: Transcriptional activation of HSF1 in human HeLa cells assessed as granule formation treated for 3 hrs at 37 degC without heat shock by immunocytochemical staining
Active and inactive are the calls of the source. No cut-off for these calls is given here.
Readout label: Activity

Compound: CC(C)N(CC(O)CO/N=C(\Cl)c1nc2ccccc2o1)CC1CC1 (stereo unspecified)
Activity: inactive
//
Compound: OC(CO/N=C(\Cl)c1nc2c(F)cccc2o1)CN1CCCCC1 (stereo unspecified)
Activity: inactive
//
Compound: OC(CO/N=C(\Cl)c1nc2ccc(Cl)cc2o1)CN1CCCCC1 (stereo unspecified)
Activity: inactive
//
Compound: OC(CO/N=C(\Cl)c1nc2cc(F)ccc2o1)CN1CCCCC1 (stereo unspecified)
Activity: inactive
//
Compound: OC(CO/N=C(\Cl)c1nc2ccccc2o1)CN1CCC(F)CC1 (stereo unspecified)
Activity: inactive

[Q] Given the compound Cc1ccc2oc(/C(Cl)=N/OCC(O)CN3CCCCC3)nc2c1 (stereo unspecified) , what is its reported Activity?
[A] inactive

[Q] Now this one: CCS(=O)(=O)c1ccc2oc(/C(Cl)=N/OCC(O)CN3CCCCC3)nc2c1 (stereo unspecified)
[A] inactive

[Q] Now this one: OC(CO/N=C(\Cl)c1nc2c(ccc3ccccc32)o1)CN1CCCCC1 (stereo unspecified)
[A] inactive

[Q] Now this one: CCCN(CC(O)CO/N=C(\Cl)c1nc2ccccc2o1)C(C)C (stereo unspecified)
[A] inactive

[Q] Now this one: CCCN(CCC)CC(O)CO/N=C(\Cl)c1nc2ccccc2o1 (stereo unspecified)
[A] inactive

[Q] Now this one: CCCCN(CCCC)CC(O)CO/N=C(\Cl)c1nc2ccccc2o1 (stereo unspecified)
[A] inactive

[Q] Now this one: CC(C)(C)NCC(O)CO/N=C(\Cl)c1nc2ccccc2o1 (stereo unspecified)
[A] inactive

[Q] Now this one: OC(CO/N=C(\Cl)c1nc2ccccc2o1)CN1CCC(F)(F)CC1 (stereo unspecified)
[A] inactive

[Q] Now this one: CC1CCCC(C)N1CC(O)CO/N=C(\Cl)c1nc2ccccc2o1 (stereo unspecified)
[A] inactive

[Q] Now this one: OC(CO/N=C(\Cl)c1nc2ccccc2o1)CN1CCCC(F)C1 (stereo unspecified)
[A] inactive

[Q] Now this one: CCN(CC)CC(O)CO/N=C(\Cl)c1nc2ccccc2o1 (stereo unspecified)
[A] inactive

[Q] Now this one: CC(C)N(CC(O)CO/N=C(\Cl)c1nc2ccccc2o1)C(C)(C)C (stereo unspecified)
[A] inactive

[Q] Now this one: OC(CO/N=C(\Cl)c1nc2ccc(F)cc2o1)CN1CCCCC1 (stereo unspecified)
[A] inactive

[Q] Now this one: CC(C)N(CCO)CC(O)CO/N=C(\Cl)c1nc2ccccc2o1 (stereo unspecified)
[A] inactive

[Q] Now this one: CC(C)N(CC(O)CO/N=C(\Cl)c1nc2ccccc2o1)C(C)C (stereo unspecified)
[A] inactive

[Q] Now this one: OC(CO/N=C(\Cl)c1nc2ccccc2s1)CN1CCCCC1 (stereo unspecified)
[A] inactive

[Q] Now this one: OC(CO/N=C(\Cl)c1nc2ccccc2s1)CN1CCCC1 (stereo unspecified)
[A] inactive

[Q] Now this one: OC(CO/N=C(\Cl)c1nc2cc(Cl)ccc2o1)CN1CCCCC1 (stereo unspecified)
[A] inactive

[Q] Now this one: CCC(C)N(CC(O)CO/N=C(\Cl)c1nc2ccccc2o1)C(C)CC (stereo unspecified)
[A] inactive

[Q] Now this one: CCCN(CC)CC(O)CO/N=C(\Cl)c1nc2ccccc2o1 (stereo unspecified)
[A] inactive

[Q] Now this one: O=C(NCC(O)CO/N=C(\Cl)c1nc2ccccc2o1)N1CCCCC1 (stereo unspecified)
[A] inactive

[Q] Now this one: CC1CC(C)CN(CC(O)CO/N=C(\Cl)c2nc3ccccc3o2)C1 (stereo unspecified)
[A] inactive

[Q] Now this one: CN(C)S(=O)(=O)c1ccc2nc(/C(Cl)=N/OCC(O)CN3CCCCC3)oc2c1 (stereo unspecified)
[A] inactive

[Q] Now this one: CC(C)N(CCCF)CC(O)CO/N=C(\Cl)c1nc2ccccc2o1 (stereo unspecified)
[A] inactive

[Q] Now this one: Cc1ccc2nc(/C(Cl)=N/OCC(O)CN3CCCCC3)oc2c1 (stereo unspecified)
[A] inactive

[Q] Now this one: OC(CO/N=C(\Cl)c1nc2cccc(F)c2o1)CN1CCCCC1 (stereo unspecified)
[A] inactive

Value source: ChEMBL document CHEMBL1152919
